- System: Influenza virus A/Suita/1/2009pdm (H1N1 2009 pandemic) (Influenza A virus A/Suita/1/2009pdm (H1N1pdm))
- Protocol description: cell-based or functional assay
Recorded metric: Neutralizing activity (%) at 100 µg/ml
Answers are plain numbers, in %.

Illustrative cases are given below, each with its answer.
Group 37 representative clone F083-311, Fab-PP-type antibody (Fab, V domains shown) VH: QVQLVQSGSEVKKPGSSVKVSCKASGGIFRTNAISYVRQAPGQGLEWMGGITAIFGTPNYAQKFQGRVTIIADESTSTVYMELGSLTSEDTAVYYCATSGTYYVSYFDSWGQGTLVTVSS VL: DIVMTQSPGTLTLSPGERATLSCRASQSLYSSHLAWYQQKPGQPPRLLIYGASTRAPGTPDRFSGSGSGTDFTLTITALDPEDSAVYYCQQYGSSPITFGQGTRLEIK yielded Neutralizing activity (%) at 100 µg/ml of 93

Consider Group 36 representative clone F082-243, Fab-PP-type antibody (Fab, V domains shown) VH: QVQLQQSGAEVKKPGSSVKVSCKASGGIFRKNAISWVRQAPGQGLEWMGGIIAIFGTANYAQKFQGRVTITADDSTNTVYMELTSLRYEDTAVYYCARGPNYYENYFDFWGQGTLVTVSS VL: EIVLTQSPSSLSASLRDTVTITCRTSQAITNYLAWYQQRPGKAPKLLIYAASVLQSGVPSRFSGSGSGTDFTLTISSLQPEDFATYYCQKYDSAPYTFGQGTKLEIK . Its measured Neutralizing activity (%) at 100 µg/ml is 97.7

// recorded Neutralizing activity (%) at 100 µg/ml for Group 64 representative clone F083-301, Fab-PP-type antibody (Fab, V domains shown) VH: QVQLVQSGAEVKKPGSSVKVSCKASGGIFNSNAISWVRQAPGQGLEWMGGIIGIFGTANYAQKFQGRVTIAADQSTNTVFMELSSLTSEDTAVYFCARSRGYSFGYGTDYFDYWGQGTLVTVSS VL: DIVMTQSPSTLSASVGDRVTITCRASQSISSWLAWYQQAPGKAPKLLIYEASKLQSGVPSRFSATGSGTEFTLTIASLQPEDFAIYYCQHYEAYPFSFGPGTKLDVK : 83.6

The binder identified as Group 42 representative clone F083-249, Fab-PP-type antibody (Fab, V domains shown) VH: QVQLVQSGSEVKKPGSSVKVSCKASGVTFSSYAISWVRQAPGQGLEWMGGISPMFGTTRYAQKFQGRVTITADESTRTGFMELSSLRSGDTAVYYCARSPTYYPGALDMWGQGTTVTVSS VL: DVVMTQSPSLLSASVGDRVTITCRASQAIANFVSWFQQKPGEAPKSLIHAASTLQGGVPPRFSGSGYGAVFTLTITNLQPEDFATYFCQQYNSLPFTFGPGTDVEVR registered its Neutralizing activity (%) at 100 µg/ml at 100

Could you now consider this next binder?
Short answer for Group 65 representative clone F083-366, Fab-PP-type antibody (Fab, V domains shown) VH: QVQLVQSGSEVKKPGSSVKVSCKASRGIFSSYAISWVRQAPGQGLEWMGAVIPMFGTLKYAENFQGRITISADKSMSAAYMELSSLRSEDTAVYYCARNYYGSGTYFNDAFDIWGQGTMVTVSS VL: QSVLTQPPSGSGAPGQRVTISCTGGNSNIGAGYDVNGYQQLPGKAPKLLIYGNNNRPSGVPDRFSGSKSGTSASLAITGLQVEDEAHYYCQSYDNGLSGSVFGGGTQLTVLG : Neutralizing activity (%) at 100 µg/ml was 13.5
